system-tested: human PI3Kα protein (Homo sapiens)
Construct: purchased Carna Biosciences, Inc; host or cells: baculovirus expression system
assay-protocol: PI3Kα enzyme assay (ADP-Glo)
Type: biochemical
test-settings: 4.5 nmol/L PI3Kα, PIP2 50 μmol/L, ATP 100 μmol/L; read-out: PI3Kα enzyme inhibitory activity
pIC50: −log10 of the molar value. Where a name gives a salt, the structure may show the parent alone.
pIC50 by entry:

Guide cases for pIC50, answers given:
> print(dat)
                                   compound                       system.tested         value
1  Cc1nnc(Nc2ccc3ncc(N(C)c4cn[nH]c4)cc3n2)s1  human PI3Kα protein (Homo sapiens)  5.00 to 6.00
2  Cn1cc(-c2cnc3ccc(Nc4nnc(NS(=O)(=O)c5ccccc5)s4)nc3c2)cn1 [Example 0177, hydrochloride]  human PI3Kα protein (Homo sapiens)        > 6.00
3  CN(C)CC(=O)N1CCN(c2cnc3ccc(Nc4nnc(C5CCCC5)s4)nc3c2)CC1  human PI3Kα protein (Homo sapiens)  5.00 to 6.00
4    Cn1cc(-c2cnc3ccc(Nc4cc[nH]n4)nc3c2)cn1  human PI3Kα protein (Homo sapiens)  5.00 to 6.00

Next compound, pIC50 to be filled in.
Record c1ccc2c(Nc3cnc4ccc(Nc5nnc(C6CCCC6)s5)nc4c3)cncc2c1 , field pIC50: > 6.00

* * *

system-tested: human PI3Kα protein (Homo sapiens, UniProt P42336)
Construct: purchased Carna Biosciences, Inc; host or cells: baculovirus expression system
Sequence (P42336 whole entry): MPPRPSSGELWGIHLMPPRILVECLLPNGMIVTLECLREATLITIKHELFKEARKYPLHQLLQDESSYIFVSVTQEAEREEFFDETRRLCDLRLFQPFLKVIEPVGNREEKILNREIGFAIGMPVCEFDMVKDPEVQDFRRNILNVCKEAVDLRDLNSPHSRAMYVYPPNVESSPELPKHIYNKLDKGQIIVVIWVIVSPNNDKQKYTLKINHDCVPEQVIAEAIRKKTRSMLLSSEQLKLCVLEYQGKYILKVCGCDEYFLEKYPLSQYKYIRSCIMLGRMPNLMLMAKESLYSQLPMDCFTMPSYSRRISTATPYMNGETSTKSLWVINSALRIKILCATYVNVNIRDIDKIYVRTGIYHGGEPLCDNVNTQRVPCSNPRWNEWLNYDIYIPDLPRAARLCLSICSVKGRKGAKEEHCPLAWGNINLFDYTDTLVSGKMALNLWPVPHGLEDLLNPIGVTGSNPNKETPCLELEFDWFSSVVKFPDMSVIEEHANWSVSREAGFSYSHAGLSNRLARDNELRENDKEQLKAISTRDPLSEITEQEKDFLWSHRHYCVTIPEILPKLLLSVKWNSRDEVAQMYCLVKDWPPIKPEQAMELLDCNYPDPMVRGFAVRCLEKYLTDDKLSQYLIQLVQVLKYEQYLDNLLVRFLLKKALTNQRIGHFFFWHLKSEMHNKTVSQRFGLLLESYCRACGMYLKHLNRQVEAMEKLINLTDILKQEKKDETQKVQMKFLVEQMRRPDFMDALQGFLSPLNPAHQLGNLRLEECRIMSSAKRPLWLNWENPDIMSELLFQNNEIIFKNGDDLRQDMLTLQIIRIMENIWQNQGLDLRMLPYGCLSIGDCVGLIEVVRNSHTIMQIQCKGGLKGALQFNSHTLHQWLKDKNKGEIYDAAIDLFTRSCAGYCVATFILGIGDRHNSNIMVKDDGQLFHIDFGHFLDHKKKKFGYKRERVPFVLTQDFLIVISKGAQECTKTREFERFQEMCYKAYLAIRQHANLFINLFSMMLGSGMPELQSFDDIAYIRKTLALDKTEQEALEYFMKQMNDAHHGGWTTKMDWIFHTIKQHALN
Sequence (P27986 whole entry partner): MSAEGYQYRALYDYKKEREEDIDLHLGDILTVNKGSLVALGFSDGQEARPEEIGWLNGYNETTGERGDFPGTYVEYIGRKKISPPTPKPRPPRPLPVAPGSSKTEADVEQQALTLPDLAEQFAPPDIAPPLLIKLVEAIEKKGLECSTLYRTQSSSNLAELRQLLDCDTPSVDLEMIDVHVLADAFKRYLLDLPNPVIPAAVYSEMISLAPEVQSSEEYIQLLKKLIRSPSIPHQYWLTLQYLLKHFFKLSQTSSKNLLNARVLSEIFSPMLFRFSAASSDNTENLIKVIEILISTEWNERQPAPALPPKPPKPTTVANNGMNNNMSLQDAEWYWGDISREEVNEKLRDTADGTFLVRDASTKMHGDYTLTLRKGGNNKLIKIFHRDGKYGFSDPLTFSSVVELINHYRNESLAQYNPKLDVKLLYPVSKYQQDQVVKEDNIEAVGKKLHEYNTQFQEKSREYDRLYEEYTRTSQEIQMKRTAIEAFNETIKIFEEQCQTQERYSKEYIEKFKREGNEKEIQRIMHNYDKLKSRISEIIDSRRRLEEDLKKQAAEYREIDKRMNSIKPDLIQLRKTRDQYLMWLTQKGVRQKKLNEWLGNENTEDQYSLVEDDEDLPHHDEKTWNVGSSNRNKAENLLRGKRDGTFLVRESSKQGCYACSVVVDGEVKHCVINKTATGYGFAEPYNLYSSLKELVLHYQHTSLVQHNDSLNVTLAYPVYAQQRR
assay-protocol: PI3Kα enzyme assay (ADP-Glo)
Type: biochemical
test-settings: read-out: PI3Kα enzyme inhibitory activity
Procedure: In a PI3Kα enzyme assay, a product (manufactured by Carna Biosciences, Inc.) obtained by biotinylating a human PI3Kα protein produced by using a baculovirus expression system was used. […] The inhibitory activities of the compounds were evaluated using IC50 (50% inhibitory concentration). The IC50 was calculated using XLFIT (trade name, manufactured by ID Business Solutions).
quantity-kind: IC50

> print(dat)
                                   compound                             system.tested  quantity.kind             value
1  CNC(=O)c1cnc2ccc(Nc3cc(C(C)C)cnn3)nc2c1 [Example 0642]  human PI3Kα protein (Homo sapiens, UniProt P42336)           IC50  1000 to 10000 nM
2  CC(C)c1cnnc(Nc2ccc3ncc(-c4cnn(CCCN5CC(OC(F)F)C5)c4)cc3n2)c1 [Example 0681]  human PI3Kα protein (Homo sapiens, UniProt P42336)           IC50         < 1000 nM

Record COC1CN(c2cnc3ccc(Nc4cc(C(C)C)cnn4)nc3c2)C1 [Example 0853] , field IC50: < 1000 nM

* * *

system-tested: human PI3Kα protein (Homo sapiens, UniProt P42336)
Construct: purchased Carna Biosciences, Inc; host or cells: baculovirus expression system
assay-protocol: PI3Kα enzyme assay (ADP-Glo)
Type: biochemical
test-settings: 4.5 nmol/L PI3Kα, PIP2 50 μmol/L, ATP 100 μmol/L; read-out: PI3Kα enzyme inhibitory activity
pIC50: −log10 of the molar value.
quantity-kind: pIC50

Guide cases for pIC50, answers given:
> print(dat)
                            chemical.string         value
1  COc1cncc(Nc2cnc3ccc(Nc4cncc(OC)c4)nc3c2)c1  5.00 to 6.00
2  CCOc1nn(C)cc1-c1cnc2ccc(Nc3nnc(C(C)C)s3)nc2c1        > 6.00
3  c1nc(CN2CCOCC2)ncc1Nc1cnc2ccc(Nc3nnc(C4CCCC4)s3)nc2c1        > 6.00

Record COc1nn(C)cc1-c1cnc2ccc(Nc3nnc(C(C)C)s3)nc2c1 , field pIC50: > 6.00

Record Cc1nnc(Nc2ccc3ncc(Nc4cn[nH]c4)cc3n2)s1 , field pIC50: 5.00 to 6.00

Record O=C(c1ccc(Nc2cnc3ccc(Nc4nnc(C5CCCC5)s4)nc3c2)cc1)N1CCOCC1 , field pIC50: 5.00 to 6.00

Record Cc1nn(CCCN2CCCC2)cc1-c1cnc2ccc(Nc3cc(C(C)C)cnn3)nc2c1 , field pIC50: > 6.00

* * *

system-tested: GST fusion human ERK2 protein (Homo sapiens, UniProt P28482)
Construct: purchased Carna Biosciences, Inc; host or cells: E. coli expression system
Sequence (P28482 whole entry, the tested form may be a part): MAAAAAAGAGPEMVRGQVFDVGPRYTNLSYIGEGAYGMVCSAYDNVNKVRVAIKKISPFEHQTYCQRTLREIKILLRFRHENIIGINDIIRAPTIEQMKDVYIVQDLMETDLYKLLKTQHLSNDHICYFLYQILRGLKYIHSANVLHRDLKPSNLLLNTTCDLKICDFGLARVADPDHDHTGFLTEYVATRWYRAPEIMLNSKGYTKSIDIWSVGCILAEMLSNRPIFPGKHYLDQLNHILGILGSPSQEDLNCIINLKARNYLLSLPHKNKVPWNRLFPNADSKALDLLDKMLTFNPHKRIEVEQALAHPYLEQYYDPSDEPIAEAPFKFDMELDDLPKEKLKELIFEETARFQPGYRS
assay-protocol: ERK2 enzyme assay (1)
Format: biochemical
test-settings: 2.5 nmol/L ERK2, ATP 43.1 μmol/L; read-out: ERK2 enzyme inhibitory activity (1)
pIC50: −log10 of the molar value. Where a name gives a salt, the structure may show the parent alone.
quantity-kind: pIC50

> print(dat)
                                   molecule  quantity.kind   value
1  O=S(=O)(Nc1ccccc1)c1nnc(Nc2ccc3ncc(-c4cnn(CCN5CCNCC5)c4)cc3n2)s1 [Example 0181, hydrochloride]          pIC50  > 6.00

Record CN1CCN(c2cnc3ccc(Nc4nnc(C5CCCC5)s4)nc3c2)CC1=O [Example 0054] , field pIC50: > 6.00

Record CCOC(=O)c1cnc(Nc2ccc3ncc(-c4cnn(C)c4)cc3n2)s1 [Example 0035] , field pIC50: 5.00 to 6.00

Record Cn1cc(-c2cnc3ccc(Nc4cc[nH]n4)nc3c2)cn1 [Example 0033] , field pIC50: 5.00 to 6.00

Record COC[C@@H]1CCCN1c1cnc2ccc(Nc3nnc(C4CCCC4)s3)nc2c1 [Example 0061] , field pIC50: > 6.00

Record CC(C)c1nnc(Nc2ccc3ncc(Nc4ccc(CN5CCOCC5)nc4)cc3n2)s1 [Example 0096] , field pIC50: > 6.00

Record CC(C)(C)OC(=O)N1CCN(CCn2cc(-c3cnc4ccc(Nc5nnc(S(=O)(=O)Nc6ccccc6)s5)nc4c3)cn2)CC1 [Example 0180] , field pIC50: > 6.00

Record c1cnc2ccc(Nc3nnc(C4CCCC4)s3)nc2c1 [Example 0043, hydrochloride] , field pIC50: > 6.00

Record Cn1cc(-c2cnc3ccc(Nc4nccs4)nc3c2)cn1 [Example 0029] , field pIC50: > 6.00

Record CC(C)c1nnc(Nc2ccc3nccc(Nc4ccncc4)c3n2)s1 [Example 0004] , field pIC50: > 6.00

Record c1nc(CN2CCOCC2)ncc1Nc1cnc2ccc(Nc3nnc(C4CCCC4)s3)nc2c1 [Example 0116] , field pIC50: > 6.00

Record CC(C)Cc1nn(C)cc1-c1cnc2ccc(Nc3nnc(C(C)C)s3)nc2c1 [Example 0138] , field pIC50: > 6.00

Record c1nc2ccc(Nc3nnc(C4CCCC4)s3)nc2cc1-c1cnn(CCCN2CCOCC2)c1 [Example 0117] , field pIC50: > 6.00

Record CN(C)Cc1nnc(Nc2ccc3ncc(-c4cnn(C)c4)cc3n2)s1 [Example 0166] , field pIC50: > 6.00

* * *

system-tested: human PI3Kα protein (Homo sapiens, UniProt P42336)
Construct: purchased Carna Biosciences, Inc; host or cells: baculovirus expression system
assay-protocol: PI3Kα enzyme assay (ADP-Glo)
Type: biochemical
test-settings: 4.5 nmol/L PI3Kα, PIP2 50 μmol/L, ATP 100 μmol/L; read-out: PI3Kα enzyme inhibitory activity
pIC50: −log10 of the molar value. Where a name gives a salt, the structure may show the parent alone.
quantity-kind: pIC50

> print(dat)
                                   compound  quantity.kind         value
1  c1cnc2ccc(Nc3nnc(C4CCCC4)s3)nc2c1 [Example 0043, hydrochloride]          pIC50  5.00 to 6.00

Record c1cc(CN2CCCC2)ncc1Nc1cnc2ccc(Nc3nnc(C4CCCC4)s3)nc2c1 , field pIC50: > 6.00

Record Cn1cc(-c2cnc3ccc(Nc4cccnc4)nc3c2)cn1 , field pIC50: 4.30 to 5.00

* * *

system-tested: GST fusion human ERK2 protein (Homo sapiens)
Construct: purchased Carna Biosciences, Inc; host or cells: E. coli expression system
assay-protocol: ERK2 enzyme assay (2)
Format: biochemical
test-settings: ERK2 enzyme assay (2); read-out: ERK2 enzyme inhibitory activity (2)
pIC50: −log10 of the molar value.
pIC50 by entry:

> print(dat)
                            chemical.string         value
1  COc1cnnc(Nc2ccc3ncc(-c4cnn(C)c4)cc3n2)c1        > 6.00
2  CC(C)c1cnnc(Nc2ccc3ncc(N4CCN(C)CC4)cc3n2)c1  5.00 to 6.00

Next compound, pIC50 to be filled in.
Record CC(C)c1cnnc(Nc2ccc3ncc(-c4cnn(CCN5CCC5)c4)cc3n2)c1 , field pIC50: > 6.00

* * *

system-tested: human PI3Kα protein (Homo sapiens)
Construct: purchased Carna Biosciences, Inc; host or cells: baculovirus expression system
assay-protocol: PI3Kα enzyme assay (ADP-Glo)
Assay type: biochemical
test-settings: read-out: PI3Kα enzyme inhibitory activity
quantity-kind: IC50

Record Cc1nn(CCCN2C[C@@H](C)O[C@@H](C)C2)cc1-c1cnc2ccc(Nc3cc(C(C)C)cnn3)nc2c1 , field IC50: < 1000 nM

Record CC(C)c1cnnc(Nc2ccc3ncc(-c4cncn4C)cc3n2)c1 , field IC50: 1000 to 10000 nM
